- Test system: ANKA strain of P. berghei
- measurement-notes: single dose STI in vivo screen in infected mice
- Parameters: species or system Plasmodium berghei
- condition-description: single 10 mg/kg po in 3% ethanol and 7% Tween 80; untreated control 5.6 ± 0.3
# note: boundary value 8 days maps to n; Survival (days) po below it maps to y

// known answers, use as guide
Clc1ccc(C2(c3ccc(Cl)cc3)OOC3(O2)C2CC4CC(C2)CC3C4)cc1 (stereo not drawn); n
COC1(c2ccc(F)cc2)CCC2(CC1)OOC1(O2)C2CC3CC(C2)CC1C3 (stereo not drawn); n
Fc1ccc(NC2CCC3(CC2)OOC2(O3)C3CC4CC(C3)CC2C4)cc1 (stereo not drawn); n
CCN(CC)C(=O)C1CCC2(CC1)OOC1(O2)C2CC3CC(C2)CC1C3 (stereo not drawn); y
CC(C)N(C(=O)N1CCC2(CC1)OOC1(O2)C2CC3CC(C2)CC1C3)C(C)C (stereo not drawn); n

Incoming: Below 8 days on Survival (days) po? Entry c1csc(NC[C@H]2CC[C@]3(CC2)OOC2(O3)C3CC4CC(C3)CC2C4)n1 (stereo partly drawn)
Outgoing: n

Incoming: Below 8 days on Survival (days) po? Entry CC(=O)N1CCC2(CC1)OOC1(O2)C2CC3CC(C2)CC1C3 (stereo not drawn)
Outgoing: y

Incoming: Below 8 days on Survival (days) po? Entry O=C(CCl)N1CCC2(CC1)OOC1(O2)C2CC3CC(C2)CC1C3 (stereo not drawn)
Outgoing: y

====

- Test system: ANKA strain of P. berghei
- measurement-notes: single dose STI in vivo screen in infected mice
- Design: species or system Plasmodium berghei
- condition-description: single 10 mg/kg sc in 3% ethanol and 7% Tween 80; untreated control 5.6 ± 0.3
# Survival (days) sc listing for each entry below
Enter your answer as a number in days; do not include the unit.

COC(=O)c1cn(C[C@H]2CC[C@]3(CC2)OOC2(O3)C3CC4CC(C3)CC2C4)cn1 (stereo partly drawn); 5.7
O=C(NO)[C@H]1CC[C@]2(CC1)OOC1(O2)C2CC3CC(C2)CC1C3 (stereo partly drawn); 8.0
OC1CCC2(CC1)OOC1(O2)C2CC3CC(C2)CC1C3 (stereo not drawn); 8.7
O=C(CO)N1CCC2(CC1)OOC1(O2)C2CC3CC(C2)CC1C3 (stereo not drawn); 8.0
BrC[C@H]1CC[C@]2(CC1)OOC1(O2)C2CC3CC(C2)CC1C3 (stereo partly drawn); 16
O=C(NO)c1ccc([C@H]2CC[C@]3(CC2)OOC2(O3)C3CC4CC(C3)CC2C4)cc1 (stereo partly drawn); 8.3
NC(=O)OC1CCC2(CC1)OOC1(O2)C2CC3CC(C2)CC1C3 (stereo not drawn); 8.0
c1ccc(CN2CCC3(CC2)OOC2(O3)C3CC4CC(C3)CC2C4)cc1 (stereo not drawn); 10.0

Now for the compound whose Survival (days) sc we want.
Log: ANKA strain of P. berghei, compound CC(C)C1CCC2(CC1)OOC1(O2)C2CC3CC(C2)CC1C3 (stereo not drawn) , Survival (days) sc = 9.0

====

- Tested on: ANKA strain of P. berghei
- measurement-notes: single dose STI in vivo screen in infected mice
- Set-up: species or system Plasmodium berghei
- condition-description: single 10 mg/kg sc in 3% ethanol and 7% Tween 80; untreated control 5.6 ± 0.3
measured-property: Survival (days) sc
Enter your answer as a number in days; do not include the unit.

Some solved entries appear below for comparison.
c1ccc2c(c1)CCC1(C2)OOC2(O1)C1CC3CC(C1)CC2C3 (stereo not drawn); 8.3
c1ccc2c(c1)CCCC21OOC2(O1)C1CC3CC(C1)CC2C3 (stereo not drawn); 14.7
C1CC2(CCO1)OOC1(O2)C2CC3CC(C2)CC1C3 (stereo not drawn); 7.7

Now for the compound whose Survival (days) sc we want.
The compound Clc1ccc(C2CCC3(CC2)OOC2(O3)C3CC4CC(C3)CC2C4)cc1 (stereo not drawn) showed Survival (days) sc equal to 8.0

====

# Survival (days) sc listing for each entry below
- Tested on: ANKA strain of P. berghei
- measurement-notes: single dose STI in vivo screen in infected mice
- Set-up: species or system Plasmodium berghei
- condition-description: single 10 mg/kg sc in 3% ethanol and 7% Tween 80; untreated control 5.6 ± 0.3

Some solved entries appear below for comparison.
NC[C@H]1CC[C@@]2(CC1)OOC1(O2)C2CC3CC(C2)CC1C3 (stereo partly drawn); 9.0 days
NC(=O)C(=O)NC[C@H]1CC[C@]2(CC1)OOC1(O2)C2CC3CC(C2)CC1C3 (stereo partly drawn); 9.7 days

Now for the molecule whose Survival (days) sc we want.
The molecule C1C2CC3CC1CC(C2)C31OOC2(O1)C1CC3CC(C1)CC2C3 (stereo not drawn) showed Survival (days) sc equal to 5.3/NA/5.3^1 days

====

- System: ANKA strain of P. berghei
- measurement-notes: single dose STI in vivo screen in infected mice
- Parameters: species or system Plasmodium berghei
- condition-description: single 10 mg/kg po in 3% ethanol and 7% Tween 80; untreated control 5.6 ± 0.3
# Survival (days) po listing for each entry below
Enter your answer as a number in days; do not include the unit.

O=C1c2ccccc2S(=O)(=O)N1C[C@H]1CC[C@]2(CC1)OOC1(O2)C2CC3CC(C2)CC1C3 (some centres unmarked) [OZ212]; 6.7
c1cn(CC[C@H]2CC[C@]3(CC2)OOC2(O3)C3CC4CC(C3)CC2C4)cn1 (some centres unmarked) [OZ219]; 8.7
O=C(Cn1ccnc1)N1CCC2(CC1)OOC1(O2)C2CC3CC(C2)CC1C3 (centres unmarked) [OZ103]; 7.3
c1ccc2c(c1)CCC1(C2)OOC2(O1)C1CC3CC(C1)CC2C3 (centres unmarked) [OZ85]; 6.0

Now for the compound whose Survival (days) po we want.
The compound O=C(NC[C@H]1CC[C@]2(CC1)OOC1(O2)C2CC3CC(C2)CC1C3)c1ccncc1 (some centres unmarked) [OZ255] showed Survival (days) po equal to 9.0

====

- Tested on: Schistosoma mansoni adult schistosomes (49-day-old)
- measurement-notes: effect on adult schistosomes (49-day-old) in mice
- Assay type: in vivo
- condition-description: single 400 mg/kg per os
# note: boundary value 20% maps to False; % reduction of adult worms growth at day 49 after per os application of 400 mg/kg, TWR (%) below it maps to True

Incoming: Below 20% on % reduction of adult worms growth at day 49 after per os application of 400 mg/kg, TWR (%)? Entry NC(=O)OC1CCC2(CC1)OOC1(O2)C2CC3CC(C2)CC1C3 (centres unmarked)
Outgoing: False

====

# Survival (days) po listing for each entry below
- System: ANKA strain of P. berghei
- measurement-notes: single dose STI in vivo screen in infected mice
- Set-up: species or system Plasmodium berghei
- condition-description: single 10 mg/kg po in 3% ethanol and 7% Tween 80; untreated control 5.6 ± 0.3

Log: ANKA strain of P. berghei, compound O=C(O)CCC(=O)N1CCC2(CC1)OOC1(O2)C2CC3CC(C2)CC1C3 (centres unmarked) [OZ58] , Survival (days) po = 6.0 days

Log: ANKA strain of P. berghei, compound CC1(O)CCC2(CC1)OOC1(O2)C2CC3CC(C2)CC1C3 (centres unmarked) [OZ90] , Survival (days) po = 7.0 days

Log: ANKA strain of P. berghei, compound CC(C)(CO)NC(=O)[C@H]1CC[C@]2(CC1)OOC1(O2)C2CC3CC(C2)CC1C3 (some centres unmarked) [OZ129] , Survival (days) po = 5.3 days

Log: ANKA strain of P. berghei, compound CCCCS(=O)(=O)N1CCC2(CC1)OOC1(O2)C2CC3CC(C2)CC1C3 (centres unmarked) [OZ92] , Survival (days) po = 6.7 days

Log: ANKA strain of P. berghei, compound NC(=O)N[C@H]1CC[C@]2(CC1)OOC1(O2)C2CC3CC(C2)CC1C3 (some centres unmarked) [OZ221] , Survival (days) po = 6.3 days

====

- System: ANKA strain of P. berghei
- measurement-notes: single dose STI in vivo screen in infected mice
- Set-up: species or system Plasmodium berghei
- condition-description: single 10 mg/kg po in 3% ethanol and 7% Tween 80; untreated control 5.6 ± 0.3
measured-property: Survival (days) po
Enter your answer as a number in days; do not include the unit.

CC(C)(C)C1CCC2(CC1)OOC1(O2)C2CC3CC(C2)CC1C3 (stereo not drawn); 5.0
O=C1CCC2(CC1)OOC1(CCCCCCCCCCC1)O2; 5.0
CC(=O)Nc1ccc(S(=O)(=O)N2CCC3(CC2)OOC2(O3)C3CC4CC(C3)CC2C4)cc1 (stereo not drawn); 6.3

The compound C1CCN(C2CCC3(CC2)OOC2(O3)C3CC4CC(C3)CC2C4)CC1 (stereo not drawn) showed Survival (days) po equal to 6.7

The compound CC(=O)OCC(=O)N1CCC2(CC1)OOC1(O2)C2CC3CC(C2)CC1C3 (stereo not drawn) showed Survival (days) po equal to 7.3

The compound CN1CCN(C(=O)N2CCC3(CC2)OOC2(O3)C3CC4CC(C3)CC2C4)CC1 (stereo not drawn) showed Survival (days) po equal to 7.3

The compound ON=C1CCC2(CC1)OOC1(O2)C2CC3CC(C2)CC1C3 (stereo not drawn) showed Survival (days) po equal to 6.7

The compound O=C(C[C@H]1CC[C@]2(CC1)OOC1(O2)C2CC3CC(C2)CC1C3)N1CCCCC1 (stereo partly drawn) showed Survival (days) po equal to 10.0

The compound Fc1ccc(OC2CCC3(CC2)OOC2(O3)C3CC4CC(C3)CC2C4)cc1 (stereo not drawn) showed Survival (days) po equal to 9.3
